# credit: patent US5340801A

Biological target: gastrin receptor (Cavia porcellus, UniProt H0VZC5)
Sequence (H0VZC5 1-426): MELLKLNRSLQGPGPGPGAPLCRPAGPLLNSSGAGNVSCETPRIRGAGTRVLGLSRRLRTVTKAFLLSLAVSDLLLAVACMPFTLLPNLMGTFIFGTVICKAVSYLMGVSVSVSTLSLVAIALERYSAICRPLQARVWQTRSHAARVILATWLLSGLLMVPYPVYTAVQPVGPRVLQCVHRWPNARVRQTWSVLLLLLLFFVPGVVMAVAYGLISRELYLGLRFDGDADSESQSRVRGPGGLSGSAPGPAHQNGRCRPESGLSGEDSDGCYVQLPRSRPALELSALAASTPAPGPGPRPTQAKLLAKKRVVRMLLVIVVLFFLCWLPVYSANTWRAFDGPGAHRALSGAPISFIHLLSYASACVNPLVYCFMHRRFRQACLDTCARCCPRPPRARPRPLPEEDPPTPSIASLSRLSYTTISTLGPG
*1 amine or outer side, *2 acyl side, *3 side chain or, on linkers, in order; H or OH if unused. Where a SMILES comes first, the peptide text is derived from it. [ ]: non-standard residue; d: D form. The star is where a group is joined. Hyp = O=C(O)[C@@H]1C[C@@H](O)CN1; βNA = c1ccc2cc(N*)ccc2c1; 2Abz = Nc1ccccc1C(=O)O; CO = O=C([*:1])[*:2]; Bn = c1ccc(C*)cc1
The following compounds are shown together with reported IC50 values.
API: value field is a number in µM; no unit string.

[[record]]
compound = "O=C(O)c1ccccc1NC(=O)[C@@H]1CCCN1C(=O)[C@@H]1C[C@@H](OCc2ccccc2)CN1C(=O)Nc1cccc2ccccc12"
reported = 0.2

[[record]]
compound = "O=C([C@H]1CCCN1C(=O)Nc1ccc2ccccc2c1)N1CCc2c([nH]c3ccccc23)C1"
reported = 10.3


For the next question, use this compound.
Entry O=C(O)c1ccccc1NC(=O)[C@@H]1CCCN1C(=O)[C@@H]1C[C@@H](OCc2ccccc2)CN1C(=O)Nc1ccc2ccccc2c1 [Example 9] ({βNA-CO}-[Hyp](Bn)-Pro-[2Abz]-OH) , gastrin receptor (Cavia porcellus, UniProt H0VZC5) data, IC50 value: 0.13

* * *

Molecular target: CCK-A receptor (Rattus norvegicus)
Sequence (P30551 1-444): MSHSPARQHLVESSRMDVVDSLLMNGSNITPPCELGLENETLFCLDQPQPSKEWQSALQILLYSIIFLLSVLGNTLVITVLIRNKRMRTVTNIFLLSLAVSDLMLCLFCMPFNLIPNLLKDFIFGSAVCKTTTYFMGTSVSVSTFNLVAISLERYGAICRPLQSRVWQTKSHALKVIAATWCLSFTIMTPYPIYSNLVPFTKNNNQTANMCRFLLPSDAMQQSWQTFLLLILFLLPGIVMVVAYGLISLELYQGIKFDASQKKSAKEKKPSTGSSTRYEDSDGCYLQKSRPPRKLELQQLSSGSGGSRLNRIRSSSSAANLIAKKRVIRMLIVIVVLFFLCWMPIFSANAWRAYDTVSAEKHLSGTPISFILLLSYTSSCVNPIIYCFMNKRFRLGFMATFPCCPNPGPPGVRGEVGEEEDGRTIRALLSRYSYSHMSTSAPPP
The following molecules are shown together with reported pIC50 values.
Quick note: pIC50 values are minus log10 of concentrations in mol/L.

Worked cases, answers included:
[[record]]
molecule = "Cc1cccc(NC(=O)N2C[C@H](OCc3ccccc3)C[C@H]2C(=O)N[C@H](CC(C)C)C(=O)N[C@H](CC(=O)O)C(N)=O)c1 [Example 7]"
metric_name = "pIC50"
reported = 5.52

[[record]]
molecule = "Cc1cccc(NC(=O)N2C[C@H](OCc3ccccc3)C[C@H]2C(=O)N2CCc3c([nH]c4ccccc34)C2)c1 [Example 1]"
metric_name = "pIC50"
reported = 5.05

[[record]]
molecule = "Cc1cccc(NC(=O)N2CCC[C@H]2C(=O)N2CCc3c([nH]c4ccccc34)C2)c1 [Example 6]"
metric_name = "pIC50"
reported = 4.43


For the next question, use this molecule.
Measured pIC50, Cc1cccc(NC(=O)N2CCC[C@@H]2C(=O)N2CCc3c([nH]c4ccccc34)C2)c1 [Example 5] : 4.43

* * *

Molecular target: gastrin receptor (Cavia porcellus, UniProt H0VZC5)
Construct: The fundic mucosa is gently scraped off the submucosa; from tissue; host or cells: guinea pig (Hartley) fundic mucosa gastric glands, collagenase-dispersed
Test: Gastrin Receptor Binding Assay
Settings: guinea pig gastric glands, displacement of 125I-(Leu-15)-Gastrin, 25° C., 30 minutes; read-out: IC50 Gastrin (In Vitro Binding Data)
Metric Name: IC50

Worked cases, answers included:
[[record]]
smiles_input = "Cc1cccc(NC(=O)N2c3ccccc3C[C@H]2C(=O)N2CCc3c([nH]c4ccccc34)C2)c1"
reported = "> 300 µM"

[[record]]
smiles_input = "Cc1cccc(NC(=O)N2C[C@H](OCc3ccccc3)C[C@H]2C(=O)N2CCc3c([nH]c4ccccc34)C2)c1"
reported = "> 300 µM"


Measured IC50, Cc1cccc(NC(=O)N2CCC[C@H]2C(=O)N2CCc3c([nH]c4ccccc34)C2)c1 : > 30 µM
